Reference for the values: patent US20250011363A1

- Assayed Target: acetylcholine receptor
- Experiment Description: SPR, AchR immobilised on chip, peptide at 10 uM
Measured Attribute: Binding affinity (RU)

In [3]: df
Out[3]:
             binder     measured_attribute  unit_label  assay_value
0  KLILK [5mer-288]  Binding affinity (RU)          RU           73
1  KWQQR [5mer-595]  Binding affinity (RU)          RU           58
2  KLVTK [5mer-577]  Binding affinity (RU)          RU           77
3  KGRRR [5mer-586]  Binding affinity (RU)          RU           78
4  RWFTR [5mer-291]  Binding affinity (RU)          RU           72
5  RRLTK [5mer-571]  Binding affinity (RU)          RU           51
6  RLFLR [5mer-269]  Binding affinity (RU)          RU           85
7  RVITR [5mer-587]  Binding affinity (RU)          RU           66
